target: Melanin-concentrating hormone receptor 2 (Homo sapiens, UniProt Q969V1); assay: Displacement of 30 pM [125I]-MCH from human MCH2R expressed in CHO-K1 in whole-cell binding assay
Sequence (Q969V1 whole entry): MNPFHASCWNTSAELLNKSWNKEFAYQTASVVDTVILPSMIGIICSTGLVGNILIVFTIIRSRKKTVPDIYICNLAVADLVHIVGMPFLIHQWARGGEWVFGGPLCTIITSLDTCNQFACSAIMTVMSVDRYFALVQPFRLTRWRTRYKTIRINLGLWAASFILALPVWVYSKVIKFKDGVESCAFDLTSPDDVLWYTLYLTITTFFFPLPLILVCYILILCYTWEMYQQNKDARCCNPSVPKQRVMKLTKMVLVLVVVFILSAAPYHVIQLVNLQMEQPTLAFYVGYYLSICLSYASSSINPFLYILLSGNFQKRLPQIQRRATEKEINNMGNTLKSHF
Note to self: IC50 under 7 µM means criterion met, ties and anything higher get criterion not met.

compound=Cc1cc(N2CCNCC2)nc2ccc(NC(=O)/C=C/c3ccc(OC(F)(F)F)cc3)cc12 category="criterion not met"
compound="CCN1CCCC1CNc1cc(C)c2cc(NC(=O)COc3ccc(OC(F)(F)F)cc3)ccc2n1 (stereo not given)" category="criterion not met"
compound=CC(=O)OCCN(C)c1cc(C)c2cc(NC(=O)COc3ccc(Cl)cc3Cl)ccc2n1 category="criterion not met"
compound=Cc1cc(N2CCNCC2)nc2ccc(NC(=O)COc3ccc(Cl)cc3Cl)cc12 category="criterion met"
compound=Cc1cc(N2CCC(N3CCCC3)CC2)nc2ccc(NC(=O)COc3ccc(OC(F)(F)F)cc3)cc12 category="criterion met"
compound=Cc1cc(NCCN(C)C)nc2ccc(NC(=O)/C=C/c3ccc(OC(F)(F)F)cc3)cc12 category="criterion not met"
compound=Cc1cc(N2CCN(C)CC2)nc2ccc(NC(=O)COc3ccc(Cl)cc3Cl)cc12 category="criterion not met"
compound=Cc1cc(OCCN(C)C)nc2ccc(NC(=O)COc3ccc(Cl)cc3Cl)cc12 category="criterion not met"

----------
target: Histamine H2 receptor (Homo sapiens); experiment: Inhibitory concentration against Histamine H2 receptor
pIC50: −log10 of the molar value.
readout.name: pIC50

structure_as_smiles=Cc1cc(N(C)CCN(C)C)nc2ccc(NC(=O)/C=C/c3ccc(OC(F)(F)F)cc3)cc12 observed_measurement=6.07

----------
test: Solubility was determined by addition of 10 mM DMSO solution of test compound to PBS (pH 7) until opalescence; settings: buffer
Listing of recorded solubility kinetic by entry.
readout.name: solubility kinetic (µM)

structure_as_smiles=Cc1cc(N2CCN(C)CC2)nc2ccc(NC(=O)COc3ccc(Cl)cc3Cl)cc12 observed_measurement=25
structure_as_smiles=CNCCN(C)c1cc(C)c2cc(NC(=O)COc3ccc(Cl)cc3Cl)ccc2n1 observed_measurement=100
structure_as_smiles=Cc1cc(N2CCNCC2)nc2ccc(NC(=O)/C=C/c3ccc(OC(F)(F)F)cc3)cc12 observed_measurement=25
structure_as_smiles=Cc1cc(N2CCNCC2)nc2ccc(NC(=O)COc3ccc(Cl)cc3Cl)cc12 observed_measurement=25

----------
target: Histamine H2 receptor (Homo sapiens, UniProt P25021); assay: Inhibitory concentration against histamine H2 receptor
Sequence (P25021 whole entry): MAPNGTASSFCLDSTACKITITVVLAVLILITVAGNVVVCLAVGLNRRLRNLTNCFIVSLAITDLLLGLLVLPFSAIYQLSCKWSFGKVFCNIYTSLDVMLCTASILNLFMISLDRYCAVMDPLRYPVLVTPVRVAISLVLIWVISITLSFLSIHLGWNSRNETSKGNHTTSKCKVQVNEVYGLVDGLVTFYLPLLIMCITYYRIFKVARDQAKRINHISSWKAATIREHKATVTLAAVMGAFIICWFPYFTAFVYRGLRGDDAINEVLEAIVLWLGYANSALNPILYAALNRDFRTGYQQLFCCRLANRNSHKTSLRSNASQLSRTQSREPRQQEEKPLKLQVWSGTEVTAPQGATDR
readout.name: IC50 (nM)

structure_as_smiles=Cc1cc(OCCN(C)C)nc2ccc(NC(=O)COc3ccc(Cl)cc3Cl)cc12 target_of_assay="Histamine H2 receptor (Homo sapiens, UniProt P25021)" readout_name=IC50 observed_measurement=870

----------
pIC50 reference
Target: 5-hydroxytryptamine receptor 2C (Homo sapiens)
Sequence (P28335 whole entry): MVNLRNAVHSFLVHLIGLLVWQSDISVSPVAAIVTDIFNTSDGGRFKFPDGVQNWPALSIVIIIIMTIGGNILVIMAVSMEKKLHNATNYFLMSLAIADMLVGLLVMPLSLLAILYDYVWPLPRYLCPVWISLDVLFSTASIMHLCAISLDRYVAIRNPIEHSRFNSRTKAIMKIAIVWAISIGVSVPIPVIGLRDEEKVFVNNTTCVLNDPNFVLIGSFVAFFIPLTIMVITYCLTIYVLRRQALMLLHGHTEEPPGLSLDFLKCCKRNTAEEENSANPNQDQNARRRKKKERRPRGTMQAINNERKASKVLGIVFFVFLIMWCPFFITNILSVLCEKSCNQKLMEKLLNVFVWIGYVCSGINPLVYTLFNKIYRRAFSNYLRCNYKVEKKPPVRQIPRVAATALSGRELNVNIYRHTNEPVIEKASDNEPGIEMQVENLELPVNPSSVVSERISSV
Assay: Inhibitory concentration against human 5-hydroxytryptamine 2C receptor expressed in CHO-K1 cells using [3H]mesulergine
Assay type: cell-based
pIC50: −log10 of the molar value.
readout.name: pIC50

compound="CCN1CCCC1CNc1cc(C)c2cc(NC(=O)COc3ccc(OC(F)(F)F)cc3)ccc2n1 (configuration not stated)" observed_measurement=5.33
compound=Cc1cc(N(C)CCO)nc2ccc(NC(=O)COc3ccc(Cl)cc3Cl)cc12 observed_measurement=5.23
compound=Cc1cc(NCCN(C)C)nc2ccc(NC(=O)/C=C/c3ccc(OC(F)(F)F)cc3)cc12 observed_measurement=5.24
compound=Cc1cc(N2CCNCC2)nc2ccc(NC(=O)COc3ccc(Cl)cc3Cl)cc12 observed_measurement=5.70
compound="Cc1cc(NC(C)CN(C)C)nc2ccc(NC(=O)/C=C/c3ccc(OC(F)(F)F)cc3)cc12 (configuration not stated)" observed_measurement=4.74
compound=Cc1cc(N2CCCNCC2)nc2ccc(NC(=O)/C=C/c3ccc(OC(F)(F)F)cc3)cc12 observed_measurement=5.80
compound=Cc1cc(N2CCNCC2)nc2ccc(NC(=O)/C=C/c3ccc(OC(F)(F)F)cc3)cc12 observed_measurement=5.96

----------
molecular target: 5-hydroxytryptamine receptor 2C (Homo sapiens, UniProt P28335); assay: Inhibitory concentration against 5-hydroxytryptamine 2C receptor expressed in CHO-K1 cells using [3H]mesulergine; type: cell-based
readout.name: IC50 (µM)

structure_as_smiles=Cc1cc(N(C)CCN(C)C)nc2ccc(NC(=O)/C=C/c3ccc(OC(F)(F)F)cc3)cc12 readout_name=IC50 unit=µM observed_measurement=0.9

----------
target: UniProt P11229
Sequence (P11229 whole entry): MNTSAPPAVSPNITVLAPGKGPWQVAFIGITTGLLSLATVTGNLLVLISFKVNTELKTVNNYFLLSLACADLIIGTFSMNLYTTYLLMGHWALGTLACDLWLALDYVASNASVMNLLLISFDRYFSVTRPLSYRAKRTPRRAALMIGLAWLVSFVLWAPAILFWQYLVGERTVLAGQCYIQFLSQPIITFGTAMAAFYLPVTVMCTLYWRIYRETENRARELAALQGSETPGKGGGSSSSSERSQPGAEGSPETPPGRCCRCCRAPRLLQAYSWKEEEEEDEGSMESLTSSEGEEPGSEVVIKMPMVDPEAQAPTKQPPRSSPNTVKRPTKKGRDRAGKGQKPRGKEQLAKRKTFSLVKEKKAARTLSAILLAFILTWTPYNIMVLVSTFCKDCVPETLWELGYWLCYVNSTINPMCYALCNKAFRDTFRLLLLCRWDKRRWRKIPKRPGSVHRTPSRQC
pIC50: −log10 of the molar value.
readout.name: pIC50

structure_as_smiles=Cc1cc(OCCN(C)C)nc2ccc(NC(=O)COc3ccc(Cl)cc3Cl)cc12 observed_measurement=5.77

----------
molecular target: 5-hydroxytryptamine receptor 2C (Homo sapiens); test: Inhibitory concentration against human 5-hydroxytryptamine 2C receptor expressed in CHO-K1 cells using [3H]mesulergine; type: cell-based
readout.name: IC50 (nM)

structure_as_smiles=Cc1cc(N2CCOCC2)nc2ccc(NC(=O)COc3ccc(OC(F)(F)F)cc3)cc12 target_of_assay="5-hydroxytryptamine receptor 2C (Homo sapiens)" unit=nM operator_symbol=> observed_measurement=10000
structure_as_smiles=CNCCN(C)c1cc(C)c2cc(NC(=O)COc3ccc(Cl)cc3Cl)ccc2n1 target_of_assay="5-hydroxytryptamine receptor 2C (Homo sapiens)" unit=nM operator_symbol== observed_measurement=770
structure_as_smiles=Cc1cc(N2CCN(C)CC2)nc2ccc(NC(=O)COc3ccc(Cl)cc3Cl)cc12 target_of_assay="5-hydroxytryptamine receptor 2C (Homo sapiens)" unit=nM operator_symbol== observed_measurement=610
structure_as_smiles=Cc1cc(NCCCN(C)C)nc2ccc(NC(=O)COc3ccc(OC(F)(F)F)cc3)cc12 target_of_assay="5-hydroxytryptamine receptor 2C (Homo sapiens)" unit=nM operator_symbol== observed_measurement=4000
structure_as_smiles=Cc1cc(N(C)CCO)nc2ccc(NC(=O)/C=C/c3ccc(OC(F)(F)F)cc3)cc12 target_of_assay="5-hydroxytryptamine receptor 2C (Homo sapiens)" unit=nM operator_symbol=> observed_measurement=10000

----------
target: D(3) dopamine receptor (Homo sapiens, UniProt P35462)
Sequence (P35462 whole entry): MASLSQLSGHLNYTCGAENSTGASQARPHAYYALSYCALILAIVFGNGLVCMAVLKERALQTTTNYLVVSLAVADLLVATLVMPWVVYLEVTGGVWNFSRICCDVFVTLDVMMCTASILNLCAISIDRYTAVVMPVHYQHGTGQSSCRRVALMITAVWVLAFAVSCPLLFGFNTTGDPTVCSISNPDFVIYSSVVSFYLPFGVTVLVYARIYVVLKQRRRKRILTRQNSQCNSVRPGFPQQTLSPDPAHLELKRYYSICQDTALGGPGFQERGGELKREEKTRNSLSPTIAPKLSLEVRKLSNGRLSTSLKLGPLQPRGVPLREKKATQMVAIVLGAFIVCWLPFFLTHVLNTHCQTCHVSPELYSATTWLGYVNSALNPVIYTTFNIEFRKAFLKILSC
pIC50: −log10 of the molar value.
readout.name: pIC50

structure_as_smiles=Cc1cc(OCCN(C)C)nc2ccc(NC(=O)COc3ccc(Cl)cc3Cl)cc12 readout_name=pIC50 observed_measurement=8.89

----------
Each item that follows carries a reported pIC50.
biological target: Melanin-concentrating hormone receptor 2 (Homo sapiens, UniProt Q969V1); assay: Displacement of 30 pM [125I]-MCH from human MCH2R expressed in CHO-K1 in whole-cell binding assay
pIC50: −log10 of the molar value.
readout.name: pIC50

structure_as_smiles=Cc1cc(N(C)CCO)nc2ccc(NC(=O)/C=C/c3ccc(OC(F)(F)F)cc3)cc12 operator_symbol== observed_measurement=5.19
structure_as_smiles=Cc1cc(N2CCOCC2)nc2ccc(NC(=O)COc3ccc(OC(F)(F)F)cc3)cc12 operator_symbol=< observed_measurement=5.00
structure_as_smiles=Cc1cc(N(C)CCN(C)C)nc2ccc(NC(=O)COc3ccc(Cl)cc3Cl)cc12 operator_symbol== observed_measurement=5.35
structure_as_smiles=Cc1cc(N2CCC(N)CC2)nc2ccc(NC(=O)COc3ccc(OC(F)(F)F)cc3)cc12 operator_symbol== observed_measurement=5.33
structure_as_smiles=Cc1cc(N(C)CCO)nc2ccc(NC(=O)COc3ccc(Cl)cc3Cl)cc12 operator_symbol=< observed_measurement=5.00

----------
molecular target: Sodium-dependent dopamine transporter (Homo sapiens, UniProt Q01959)
Sequence (Q01959 whole entry): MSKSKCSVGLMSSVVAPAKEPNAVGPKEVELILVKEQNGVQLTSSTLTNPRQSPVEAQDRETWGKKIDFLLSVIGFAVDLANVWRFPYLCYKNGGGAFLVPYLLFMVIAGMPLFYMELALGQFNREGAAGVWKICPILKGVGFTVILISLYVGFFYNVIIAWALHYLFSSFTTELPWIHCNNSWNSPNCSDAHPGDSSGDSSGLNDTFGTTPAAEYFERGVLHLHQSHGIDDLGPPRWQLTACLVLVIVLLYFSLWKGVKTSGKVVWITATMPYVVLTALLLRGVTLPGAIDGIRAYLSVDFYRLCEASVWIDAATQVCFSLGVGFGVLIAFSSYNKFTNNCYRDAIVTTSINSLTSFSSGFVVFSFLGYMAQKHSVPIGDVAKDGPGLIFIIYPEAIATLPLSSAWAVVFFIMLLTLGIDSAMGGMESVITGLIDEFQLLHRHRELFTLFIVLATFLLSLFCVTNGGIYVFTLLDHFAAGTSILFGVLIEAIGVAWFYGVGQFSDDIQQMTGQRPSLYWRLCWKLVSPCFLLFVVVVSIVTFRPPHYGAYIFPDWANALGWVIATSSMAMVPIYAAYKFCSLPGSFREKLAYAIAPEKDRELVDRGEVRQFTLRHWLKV
pIC50: −log10 of the molar value.
readout.name: pIC50

structure_as_smiles=Cc1cc(OCCN(C)C)nc2ccc(NC(=O)COc3ccc(Cl)cc3Cl)cc12 operator_symbol=< observed_measurement=5.00
structure_as_smiles=Cc1cc(N(C)CCN(C)C)nc2ccc(NC(=O)/C=C/c3ccc(OC(F)(F)F)cc3)cc12 operator_symbol== observed_measurement=5.00

Origin of the recorded values: ChEMBL document CHEMBL1140405
